Experiment: yeast display, Sf9 membrane polyspecificity reagent, FACS + sequencing; frameworks hold sequencing errors
test_readout: polyreactivity (PSR sort gate)

Some solved entries appear below for comparison.
1) QVQLVESGGGLVQAGGSLRLSCAASGSILVAYAMGWYRQAPGKERELVAAITQGGGSTYYADSVKGRFTISRDNAKNTVYLQMNSLKPEDTAVYYCNVGANVYLLYFPSRGGVYDYGYWGKGTQVTVSS = low polyreactivity
2) QVQLVESGGGLVQAGGSLRLSCAASGRILYLYTMGWYRQAPGKERELVAAISRGGSTYYADSVKGRFTISRDNAKNTVYLQMNSLKPEDTAVYSCAADARGYQFNYWGQGTQVTVSS = low polyreactivity
3) QVQLVESGGGLVQAGGSLRLSCAASGSIFARYAMGWYRQAPGTERELVAAISRNGGSTYYADSVKGRFTISRDNAKNTVYLQMNSLKPEDTAVYYCAASYYVLYTREYDYWGQGTQVTVSS = low polyreactivity
4) QVQLVESGGGLVQAGGSLRLSCAASGRTLYYNTMGWYRPAPGKERELVSSIRWDGGRTYYADSVKGRFTISRDNAKNTVYLQMNSLKPEDTAVYYCAKDGCYYYGTYAYDGCFDYWGQGTQVTVSS = low polyreactivity
5) QVQLVESGGGLVQAGGSLRLSCAASGFTFIRNAMGWYRPAPGKERELVAAISTSGGTTYYADSVKGRFTISRDNAKNTVYLQMNSLKPEDTAVYYCNKGIGRSDPDYRYYYWGQGTQVTVSS = high polyreactivity
6) KVQLVESGGGLVQAGGSLRLSCAASGRTFPYYVMGWYRQAHGKERELVAAIDVGGGSTYYADSVKGRFTISRDNAKNTVYLQMNSLKPEVTAVYYCAAQVDYLAHYGYWGQGTQVTVSS = low polyreactivity
7) QVQLVESGGGLVQAGGSLRLSCAASGFIFGAYTMGWYRQAPGKESELVADISRRGGTTYYADSVKGRFTISRDNAKNTVYLQMNSLKPEDTAVYYCANVANFWYNTTLRGYYYWGQGTQVSVSS = high polyreactivity
8) QVQLVESGGGLVQAGGSLRLSCAASGFTIGSYAMGWYRQAPGKEREFVAAIRRSGSSTYYADSVKGRFTISRDNAKNTVYLQMNSLKPEDTAVYYCAADVYRRLRRYRYYYWGQGTQVTVSS = low polyreactivity

# polyreactivity (PSR sort gate) lookup, item QVQLVESGGGLVQAGGSLRLSCAASGRTLYYYAMGWYRQEPGKERELVAAISWSGGRTYYADSVKGRFTISRDNAKNTVYLQMNSLKAEDTAVYYCAAQYISRGYTVDYWGQGTQVTVSS
high polyreactivity

# polyreactivity (PSR sort gate) lookup, item QVQLVESGGGLVQAGGSLRLSCAASGLTIFVNAMGWYRQAPGKERELVATISGGGSTYYADSVKGRFTISRDNAKNTVYLQMNSLKPEDTAVYYCNADVLFYTYYTRGRFDFDYWGQGTQVTVSS
low polyreactivity

# polyreactivity (PSR sort gate) lookup, item QVHLVESGRGLVQAGRSLRLSCAASGLTFDWYDMGCYRQAPGKERELVAAITSVGSTYYADSVKGRFTISRDNAKKTVYLQMNSLKPEDTAVYYCGVEGVIWSFWPYEYWGQGTQVTVSS
high polyreactivity
